target: Histidine--tRNA ligase (Leishmania infantum); experiment: Leishmania infantum Histidine tRNA synthetase (LdHisRS); format: functional; parameters: scale not given: in the data most compounds retested in dose-response had high values; conditions: 30 µM
Among all 69,000 compounds or so, about 420 (0.61%) showed an effect of 50% or more. Many of the other results were omitted from the sample, so strong results are more common in it than they were.
Percent Effect less than 20% is criterion met; Percent Effect greater than or equal to 20% is criterion not met.

Query :: Is it true that Percent Effect reported for `O=C1CC2(CCN(Cc3ccc4cccc(O)c4n3)CC2)CN1` is less than 20%?
Result :: criterion not met

###

target: Histidine--tRNA ligase (Leishmania infantum) (UniProt A4I591); test: Leishmania infantum Histidine tRNA synthetase (LdHisRS); type: functional; parameters: scale not given: in the data most compounds retested in dose-response had high values; details: 30 µM
Among all 69,000 compounds or so, about 420 (0.61%) showed an effect of 50% or more. The sample as a whole holds a higher share of strong results than the screen did.
Percent Effect less than 20% is Criterion met; Percent Effect greater than or equal to 20% is Criterion not met.

Cc1csc([C@@H]2C[C@@H]3CCN(C(=O)c4cc(C)on4)C[C@H]3O2)n1: Criterion met
CNc1nc2c(s1)C(c1ccccc1F)CC(=O)N2 (stereo not drawn): Criterion not met
CCN1CC2(CCOCC2)c2cc(NS(=O)(=O)CC)ccc21: Criterion not met
CNc1nc2c(s1)C(c1ccccc1Cl)CC(=O)N2 (stereo not drawn): Criterion not met
COCCOc1ncccc1C(=O)N1CCCCC1c1nccs1 (stereo not drawn): Criterion met
Cn1ncc2c1NC(=O)CC2c1ccccc1Cl (stereo not drawn): Criterion met
CCC(=O)Nc1ccc2c(c1)C1(CCOCC1)CN2CCF: Criterion not met
COC(=O)c1ccc(CNC(=O)Nc2ccc(=O)n(C)c2)cc1: Criterion not met
CN(C)C(=O)N1CC2(CCOCC2)c2cc(NS(=O)(=O)C3CC3)ccc21: Criterion met
CN(C)C(=O)CN1C[C@@H]2CC[C@H](C1)N(Cc1ccc3nsnc3c1)C2: Criterion met

Query :: Is it true that Percent Effect reported for `CNc1cc2c(nn1)CCN(C(=O)c1cc(F)cc(F)c1)C2` is less than 20%?
Result :: Criterion not met

Query :: Is it true that Percent Effect reported for `COCC(=O)N1CC[C@H]2N(C)CC[C@@]2(C(=O)Nc2ccccc2)CC1` is less than 20%?
Result :: Criterion met

Query :: Is it true that Percent Effect reported for `COc1ccc(CNC(=O)c2ccc(=O)n(C)c2)cc1C` is less than 20%?
Result :: Criterion met

Query :: Is it true that Percent Effect reported for CNc1nc2c(s1)C(c1cccc(F)c1F)CC(=O)N2 (stereo not drawn) is less than 20%?
Result :: Criterion not met

Query :: Is it true that Percent Effect reported for `COc1ccccc1CN1C(=O)O[C@@H]2CN(Cc3cccc(C)n3)C[C@@H]21` is less than 20%?
Result :: Criterion met

###

biological target: Histidine--tRNA ligase (Leishmania infantum) (UniProt A4I591); test: Leishmania infantum Histidine tRNA synthetase (LdHisRS); format: functional; set-up: scale not given: in the data most compounds retested in dose-response had high values; conditions: 30 µM
The whole screen tested about 69,000 compounds, of which about 420 (0.61%) showed an effect of 50% or more. The list comes from a sample in which strong results are over-represented; it also holds close analogues and randomly drawn compounds.
Provide the recorded Percent Effect for the entries that follow.
Report as: number unit

CC(C)=CCN1C[C@H]2CC[C@@H]1CN(C(=O)CCc1n[nH]c(C)n1)C2: -42.5%
Cn1cccc1C(=O)N1CCO[C@@H]2CN(Cc3ccco3)C[C@@H]2C1: 11.8%
COCCNC(=O)[C@H]1CC[C@@H]2[C@@H](CCN2S(C)(=O)=O)O1: 22.9%
Cc1ccc(CN2CC[C@@H]3OCCN(S(C)(=O)=O)[C@H]3CC2)s1: 7.55%
O=C1O[C@@H]2CN(Cc3cc4ccccc4s3)C[C@@H]2N1Cc1ccccn1: 2.67%
COc1ccc(N2CCC(N3CCOC(C(F)(F)F)C3)CC2)cc1 (configuration not stated): 14.3%

For the 5 compounds below, give their Percent Effect values.
1. Cc1ccc(N2C[C@H]3OCC[C@H]3[C@H](C(=O)NC3CCC3)C2)nn1
2. COc1ccc(C(=O)N2CCN(c3cc(CCN)nc(C)n3)CC2)cc1
3. CN(C)C(=O)N1C[C@@H](C(=O)NCc2ccco2)C[C@H]2OCC[C@H]21
4. CS(=O)(=O)N1C[C@@H]2CC[C@H](C1)N(C(=O)CCc1n[nH]c3c1CCCC3)C2
5. CC(=O)N1C[C@@H]2CC[C@H](C1)N(C(=O)CCc1n[nH]c3c1CCCC3)C2

Result ::
["11.8%", "50.4%", "0%", "14.5%", "17.7%"]

For the 6 compounds below, give their Percent Effect values.
1. c1ccc(CN2CC[C@@H]3O[C@H](COCc4ccncc4)CC[C@@H]32)nc1
2. NCC1CCN(C2CCN(c3ccc(-c4ccco4)cc3)CC2)C1 (configuration not stated)
3. CCOc1cc(N2CCN(C(=O)c3ccc(OC)cc3)CC2)nc(C)n1
4. O=C(CCc1n[nH]c2c1CCCC2)N1C[C@@H]2CC[C@H](C1)N(CC1CC1)C2
5. O=C(c1cscn1)N1C[C@H](OCc2cccnc2)[C@H]2COC[C@H]21
6. CCS(=O)(=O)c1ccc(N2CCC(N)CC2)cc1

Result ::
10.9%
64.3%
5.98%
56.5%
9.72%
11.6%

For the 5 compounds below, give their Percent Effect values.
1. CC(=O)N1CC[C@@]2(O)CCCC[C@H]2[C@@H]1c1ccccc1
2. O=S(=O)(c1cccnc1)N1C[C@@H]2COC[C@]2(COCC2CC2)C1
3. COCCN1CCO[C@@H]2CN(C(=O)COc3ccc(C)cc3)C[C@@H]2C1
4. Cc1ccc(C(=O)N2CCO[C@H]3[C@H](OCc4ccccn4)CC[C@@H]32)o1
5. COC[C@]12COC[C@H]1CN(Cc1cc(OC)cc(OC)c1)C2

Result ::
1. -75.8%
2. 1.75%
3. 10.3%
4. 19.3%
5. 4.51%

###

Molecular target: Histidine--tRNA ligase (Leishmania infantum)
Sequence (whole entry): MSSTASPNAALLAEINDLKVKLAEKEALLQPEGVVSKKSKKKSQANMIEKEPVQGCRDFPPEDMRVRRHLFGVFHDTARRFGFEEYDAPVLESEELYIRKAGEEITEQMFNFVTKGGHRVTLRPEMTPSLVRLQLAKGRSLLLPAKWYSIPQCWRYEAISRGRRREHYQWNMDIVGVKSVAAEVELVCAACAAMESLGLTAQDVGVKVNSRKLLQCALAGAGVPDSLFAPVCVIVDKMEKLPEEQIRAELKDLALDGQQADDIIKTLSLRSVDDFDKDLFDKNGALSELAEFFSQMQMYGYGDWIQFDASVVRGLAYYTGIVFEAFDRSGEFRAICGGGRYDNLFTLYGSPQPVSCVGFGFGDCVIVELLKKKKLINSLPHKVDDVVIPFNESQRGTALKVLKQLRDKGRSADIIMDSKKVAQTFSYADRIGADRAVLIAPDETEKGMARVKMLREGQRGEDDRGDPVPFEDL
Assay: Leishmania infantum Histidine tRNA synthetase (LdHisRS)
Type: functional
Parameters: scale not given: in the data most compounds retested in dose-response had high values
Conditions: 30 µM
The campaign covered roughly 69,000 compounds. About 420 (0.61%) showed an effect of 50% or more. Only a selection was taken, and strong results are over-represented in it overall.
Measured Property: Percent Effect (%)
One number for each entry, in %.

CCN1C(=O)C(C#N)=C(C)/C(=C/C2=Cc3ccccc3OC2)C1=O: 86.8
Cc1ccc([C@@]2(O)CC[C@@H]3CN(S(=O)(=O)c4cn(C)nc4C)C[C@@H]32)cc1: -15.8
COc1ccsc1C(=O)NCCNc1ccccc1: 11.7

For the 4 molecules below, give their Percent Effect values.
1. O=C(NC[C@@]1(COc2cnccn2)C[C@@H](O)[C@@H](O)C1)C1CCCC1
2. COC(=O)N1C[C@H]2CC[C@@H]1CN(Cc1cscn1)C2
3. Cn1cc(NC(=O)Nc2ccccn2)cc(Cl)c1=O
4. Cn1cc(NC(=O)c2cc[nH]n2)cc(Cl)c1=O

Result ::
18.9
22.9
121
10.3

For the 5 molecules below, give their Percent Effect values.
1. COc1ccsc1C(=O)Nc1cc(CN2CCOCC2)ccc1C
2. CC(Cn1cccn1)NC(=O)C1=Cc2ccccc2OC1 (configuration not stated)
3. Cc1ccsc1C(=O)Nc1cc(Br)c(=O)n(C)c1
4. COCCn1ccc(NC(=O)Nc2ccccn2)n1
5. Cn1cc(NC(=O)c2ccccn2)cc(Cl)c1=O

Result ::
1: -11.1; 2: 16; 3: 107; 4: 13.2; 5: 10.3
